# Test Protocol: Antimitotic activity against human U373 cells by [3H]thymidine incorporation assay
# Format: functional, U-373MG ATCC
# Stated Conditions: U373 MG, read-out: ID50 (the source's name)
Recorded IC50 by entry

For orientation, consider the following solved cases.
CCCCCCCCCCCCCCCCO[C@H]1O[C@H](CO)[C@@H](O)[C@H](O)[C@H]1NC(C)=O    > 50 µM
CCCCCCCCO[C@H]1O[C@H](CO)[C@@H](O)[C@H](O)[C@H]1NC(C)=O    > 50 µM

Let us move to another entry and its IC50.
[in] Please report the measured IC50 for `C=CCCC(=O)N[C@H]1[C@@H](OCCc2ccccc2)O[C@H](COS(=O)(=O)O)[C@@H](O)[C@@H]1O`
[out] > 50 µM

###

# Tested on: A-375
# Test Protocol: Antimitotic activity against human A375 cells by [3H]thymidine incorporation assay
# Assay type: functional
# Stated Conditions: A-375, 24 h, read-out: ID50 (the source's name)
pIC50: −log10 of the molar value.
# pIC50 annotations

Solved cases (2 shown):
CCCCCCCCO[C@H]1O[C@H](CO)[C@@H](O)[C@H](O)[C@H]1NC(=O)c1ccccc1    < 4.30
CC(=O)N[C@H]1[C@@H](OCCc2ccccc2)O[C@H](CO)[C@@H](O)[C@@H]1O    < 4.30

[in] Return the recorded pIC50 value; entry: `C=CCCC(=O)N[C@H]1[C@@H](OCCc2ccccc2)O[C@H](CO)[C@@H](O)[C@@H]1OS(=O)(=O)O`
[out] < 4.30

###

# System: C6
# Test Protocol: Antimitotic activity against rat C6 cells by [3H]thymidine incorporation assay
# Format: functional
# Stated Conditions: C6, 24 h, read-out: ID50 (the source's name)
Attribute Measured: IC50

Observe how each entry below is paired with its result.
CC(=O)N[C@H]1[C@@H](OCCc2ccccc2)O[C@H](CO)[C@@H](O)[C@@H]1O    > 50 µM
CCCCC(=O)N[C@H]1[C@@H](OCCc2ccccc2)O[C@H](COCC(O)CO)[C@@H](O)[C@@H]1O (mixture of isomers)    > 50 µM
CCCCC(=O)N[C@H]1[C@@H](OCCc2ccccc2)O[C@H](COCC(CO)(CO)CO)[C@@H](O)[C@@H]1O    > 50 µM
CCCCCCCCO[C@H]1O[C@H](CO)[C@@H](O)[C@H](O)[C@H]1NC(C)=O    > 50 µM

Let us move to another entry and its IC50.
[in] Hello, please tell me recorded IC50 for this one: `C=CCCC(=O)N[C@H]1[C@@H](OCCCCCCCCCCCCCCCC)O[C@H](CO)[C@@H](O)[C@@H]1O`
[out] > 50 µM
